The reported numbers originate from the supplement of paper PMC10933113.

test system: cysteine peptide Ac-RFAACAA-COOH; assay: efficacy of cysteine peptide change (negative = depletion) (% activity); higher = less depletion; conditions: incubation time: 24 h
parameter.measured: efficacy of cysteine peptide change
# respond with the number and nothing more

efficacy of cysteine peptide change for O=C(NS(=O)(=O)/C=C/c1ccccc1)c1ccc(F)cc1Cl ? 5

efficacy of cysteine peptide change for CCCCNC(=S)NCCCC ? -32.7

efficacy of cysteine peptide change for O=C(O)Cc1cc(I)c(Oc2cc(I)c(O)c(I)c2)c(I)c1 ? -91.9

efficacy of cysteine peptide change for CCS(=O)(=O)CCSP(=O)(OC)OC ? -43.5

efficacy of cysteine peptide change for Clc1ccc2c(c1)Nc1ccccc1S2 ? -90.5

====

tested on: cysteine peptide Ac-RFAACAA-COOH; assay: efficacy of cysteine peptide change (negative = depletion) (% activity); higher = less depletion; conditions: incubation time: 24 h
Provide the recorded efficacy of cysteine peptide change for the entries that follow.
# respond with the number and nothing more

efficacy of cysteine peptide change for COP(=O)(OC)OC(Br)C(Cl)(Cl)Br (centres undefined) ? -89.9

efficacy of cysteine peptide change for C=CC(C)(CCC=C(C)C)OC(=O)CC(C)C (centres undefined) [Linalyl isovalerate] ? -30.6

efficacy of cysteine peptide change for CCOP(=S)(OCC)Oc1cnc2ccccc2n1 ? 97.5

efficacy of cysteine peptide change for COc1cc(Nc2c(C#N)cnc3cc(OCCCN4CCN(C)CC4)c(OC)cc23)c(Cl)cc1Cl ? 32.5

efficacy of cysteine peptide change for N#Cc1nc(Cl)c(Cl)c(Cl)c1Cl ? -49.4

efficacy of cysteine peptide change for CC(C)CC(C)Nc1ccc(Nc2ccccc2)cc1 (centres undefined) ? -77.3

efficacy of cysteine peptide change for CCOC(=O)CCC(=O)OCC [Diethyl butanedioate] ? 47

efficacy of cysteine peptide change for O=c1n(CC2CO2)c(=O)n(CC2CO2)c(=O)n1CC1CO1 (centres undefined) [Triglycidyl isocyanurate] ? -3.96

efficacy of cysteine peptide change for [Cl][Bi]([Cl])([c]1ccccc1)([c]1ccccc1)[c]1ccccc1 [Triphenylbismuthine dichloride] ? -96.9

efficacy of cysteine peptide change for COc1ccc(C(=O)c2ccc(C)cc2)c(O)c1 ? 2.33

efficacy of cysteine peptide change for COC(=O)Nc1nc2ccc(C(=O)C3CC3)cc2[nH]1 ? -42.3

efficacy of cysteine peptide change for Cc1c(C)n(Cc2ccccc2)c2ccc(C(=O)OCCN(C)C)cc12 [Indocate] ? 17.7

efficacy of cysteine peptide change for CC(C)=CC1C(C(=O)OCc2coc(Cc3ccccc3)c2)C1(C)C (centres undefined) ? -122

efficacy of cysteine peptide change for O=C(N/N=C/c1ccc([N+](=O)[O-])o1)c1cc([N+](=O)[O-])cc([N+](=O)[O-])c1O ? -105

efficacy of cysteine peptide change for CCOC(=O)NC(=S)Nc1ccccc1NC(=S)NC(=O)OCC [Thiophanate] ? -5.09

efficacy of cysteine peptide change for CCC(C)(NC(=O)c1cc(Cl)c(C)c(Cl)c1)C(=O)CCl (centres undefined) [Zoxamide] ? -8.25

efficacy of cysteine peptide change for O=C(Nc1ccccc1)c1cc(Cl)ccc1O [5-Chlorosalicylanilide] ? -46

efficacy of cysteine peptide change for O=C(NS(=O)(=O)/C=C/c1cccs1)c1ccc(F)cc1Br ? -6.04

efficacy of cysteine peptide change for CC(C)(C)c1ccc(S)cc1 ? -88.2

====

system: KeratinoSens (HaCaT ARE-luciferase) cells; assay: AC50 of Nrf2/ARE luciferase induction; higher = less potent; conditions: exposure time: 24 h
parameter.measured: AC50 of Nrf2/ARE luciferase induction (µM)
Report only the number, with the unit µM understood.

AC50 of Nrf2/ARE luciferase induction for OC12N=C(c3ccccc3)SC1Cc1cc(Cl)ccc12 (stereo not given) ? 28.9

AC50 of Nrf2/ARE luciferase induction for COc1ccc(-c2cc(=S)ss2)cc1 ? 22

AC50 of Nrf2/ARE luciferase induction for O=c1n(CC2CO2)c(=O)n(CC2CO2)c(=O)n1CC1CO1 (stereo not given) [Triglycidyl isocyanurate] ? 14.1

AC50 of Nrf2/ARE luciferase induction for O=C1Nc2ccccc2C1(c1ccc(O)cc1)c1ccc(O)cc1 ? 19

AC50 of Nrf2/ARE luciferase induction for CCCSS/C(CCO)=C(/C)N(C=O)Cc1cnc(C)nc1N ? 15.8

AC50 of Nrf2/ARE luciferase induction for c1ccc(CCNc2nc(-c3ccccc3)cs2)cc1 ? 33.2

AC50 of Nrf2/ARE luciferase induction for C[C@@H]1O[C@@H](O[C@@H]2C=C3CC[C@@H]4[C@H](CC[C@]5(C)[C@@H](c6ccc(=O)oc6)CC[C@]45O)[C@@]3(C)CC2)[C@H](O)[C@H](O)[C@H]1O ? 0.27

AC50 of Nrf2/ARE luciferase induction for COP(=O)(OC)OC(Br)C(Cl)(Cl)Br (stereo not given) ? 31.8

AC50 of Nrf2/ARE luciferase induction for O=C(CCl)c1ccccc1 ? 35.5

AC50 of Nrf2/ARE luciferase induction for CC(C)(C)c1cc(O)c(C(C)(C)C)cc1O ? 42.1

====

Provide the recorded efficacy of cysteine peptide change for the entries that follow.
system: cysteine peptide Ac-RFAACAA-COOH; assay: efficacy of cysteine peptide change (negative = depletion) (% activity); higher = less depletion; details: incubation time: 24 h
# respond with the number and nothing more

efficacy of cysteine peptide change for COc1ccc(-c2cc(=S)ss2)cc1 ? -84.1

efficacy of cysteine peptide change for COc1cccc2c1C(=O)c1c(O)c3c(c(O)c1C2=O)C[C@@](O)(C(=O)CO)C[C@@H]3O[C@H]1C[C@H](N)[C@H](O[C@@H]2CCCCO2)[C@H](C)O1 ? -101

efficacy of cysteine peptide change for CCCCC/C=C\C=C\C(=O)OCC [Ethyl (2E,4Z)-deca-2,4-dienoate] ? -99.8

efficacy of cysteine peptide change for NC(=O)n1c(O)c(C(=O)c2cccs2)c2cc(Cl)ccc21 ? -110

efficacy of cysteine peptide change for O=C(Nc1ncc([N+](=O)[O-])s1)c1cccs1 ? -93.3

efficacy of cysteine peptide change for S=C(NC1CCCCC1)NC1CCCCC1 ? 5.83

efficacy of cysteine peptide change for O=C(Nc1ccccc1)c1cc([N+](=O)[O-])ccc1Cl [2-Chloro-5-nitro-N-phenylbenzamide] ? -15.7

efficacy of cysteine peptide change for CCC1OCC(COc2ccc(Oc3ccccc3)cc2)O1 (centres undefined) ? 8.44

efficacy of cysteine peptide change for O=C(CCl)CCl ? -107

====

tested on: cysteine peptide Ac-RFAACAA-COOH; test: AC50 of cysteine peptide concentration-response (direction given by sign of efficacy); higher = less potent; settings: incubation time: 24 h
Counter-ions that a name gives are not always drawn.
Classes based on AC50: group A (below 2 µM), group B (2 µM to below 20 µM), group C (20 µM or more)

Please report the category associated with CCOC(=O)CC(SP(=S)(OC)OC)C(=O)OCC (stereo unspecified) , nothing else. group B

Please report the category associated with O=C(O)Cc1cc(I)c(Oc2cc(I)c(O)c(I)c2)c(I)c1 , nothing else. group C

Please report the category associated with N=C1C=CC(=C(c2ccc(N)cc2)c2ccc(N)cc2)C=C1 [C.I. Basic Red 9 monohydrochloride] , nothing else. group C

Please report the category associated with Nc1ccc(N)cc1 , nothing else. group B

Please report the category associated with Oc1ccc2ccccc2c1N=Nc1ccccc1 , nothing else. group B

Please report the category associated with COc1ccccc1N [2-Methoxyaniline hydrochloride] , nothing else. group C

Please report the category associated with CNc1ccc(O)cc1 [4-(Methylamino)phenol Sulfate] , nothing else. group A

Please report the category associated with CCOP(=S)(OCC)SC(CCl)N1C(=O)c2ccccc2C1=O (stereo unspecified) , nothing else. group B

Please report the category associated with O=C1c2cccc(O)c2C(=O)c2c(O)cc(CO)cc21 , nothing else. group A

Please report the category associated with COc1cccc2c1C(=O)c1c(O)c3c(c(O)c1C2=O)C[C@@](O)(C(=O)CO)C[C@@H]3O[C@H]1C[C@H](N)[C@H](O[C@@H]2CCCCO2)[C@H](C)O1 , nothing else. group B

Please report the category associated with COP(=O)(OC)OC(Br)C(Cl)(Cl)Br (stereo unspecified) , nothing else. group A

Please report the category associated with ClC1=C(Cl)C2(Cl)C3C(Cl)C(Cl)CC3C1(Cl)C2(Cl)Cl (stereo unspecified) , nothing else. group C

Please report the category associated with N#C/C=C/C#N , nothing else. group B

Please report the category associated with CN(C)c1ccc(SC#N)cc1 [4-(Dimethylamino)phenylthiocyanate] , nothing else. group B

Please report the category associated with O=c1ssc(Cl)c1Cl , nothing else. group A

Please report the category associated with N#CCC#N , nothing else. group C

Please report the category associated with Nc1ccccc1N , nothing else. group A

Please report the category associated with C/C=C/C=C/C=O , nothing else. group B

Please report the category associated with ClC1=C(Cl)C(Cl)(Cl)C(Cl)=C1Cl , nothing else. group C

Please report the category associated with Oc1c(Br)cc(Br)c2cccnc12 , nothing else. group B
